Reference for the values: patent US6342534B1

System: L1210 cells
experimental_protocol: Growth inhibition of L1210 cells (IC50 at 48/96 h)
Format: cell-based
experimental_parameters: Mus musculus, Table 1, 48 h, read-out: IC50 (μM) of L1210 cells at 48 h
measurement_type: IC50

The following molecules have reported results that may help.
C(CCNCCC1CCNCC1)CNCCC1CCNCC1 | > 100 µM
C(CCNCC1CCNCC1)CNCC1CCNCC1 | 2 µM
c1cc(CNCCCCNCc2ccncc2)ccn1 | > 100 µM

Turning now to a further molecule:
c1cc(CCNCCNCCc2ccncc2)ccn1 tested on L1210 cells gave IC50: > 100 µM
